# experiment: Whole-body plethysmography, respiratory effects in rats
# experimental_setup: Sprague-Dawley, rat, in vivo, iv
Where a name gives a salt, the structure may show the parent alone.
property: Tmax (min)

COc1cccc(C2(O)CCCCC2CN(C)C)c1 (stereo not shown) [Tramadol, Tramadol hydrochloride, reference compound]: 30

###

# Test system: Sprague-Dawley rats
# experiment: Whole-body plethysmography, respiratory effects in rats
# experimental_setup: IV; KGNOP1 from 5 to 240 min, KGOP1 from 15 to 120 min
Numbered stars: 1 amine (or outer) side, 2 acyl side, 3 side chain; on linkers, the order of the positions; unused ones are H or OH. Square brackets hold non-standard residues; d marks the D form. Peptide text beside a SMILES is read from it. X1 = O=C1C(N[*:1])Cc2ccccc2CN1CCC(=O)[*:2]; Dmt = Cc1cc(O)cc(C)c1C[C@H](N)C(=O)O
property: Effect on expiratory time (TE) versus baseline, time-course

CC[C@H](C)[C@H](NC(=O)[C@H](CCCNC(=N)N)NC(=O)[C@H](Cc1ccc(O)cc1)NC(=O)[C@H](Cc1ccc(O)cc1)NC(=O)[C@H](CCCNC(=N)N)NC(=O)CCN1Cc2ccccc2CC(NC(=O)[C@@H](CCCNC(=N)N)NC(=O)[C@@H](N)Cc2c(C)cc(O)cc2C)C1=O)C(=O)N[C@@H](CCCCN)C(N)=O (stereo partly shown) [KGNOP1] (H-[Dmt][dR][X1]RYYRIK-NH2): significantly decreased
Cc1cc(O)cc(C)c1C[C@H](N)C(=O)N[C@H](CCCNC(=N)N)C(=O)NC1Cc2ccccc2CN(CCC(N)=O)C1=O (stereo partly shown): significantly decreased

Sourced from paper PMC5302413
